Target: Neurogenic locus notch homolog protein 3 (Homo sapiens)
Assay: NOTCH3 binders on small-molecule microarray, primary screen, biochemical, 635/667 nm fluorescence (AID 1096)
Conditions: NOTCH3 binding, 635 nm fluorescence, higher = more signal
measurement_label: composite z-score
The answer should be written as a number, with no unit following it.

Value wanted: composite z-score (Neurogenic locus notch homolog protein 3 (Homo sapiens)) of entry `C=CCN1C(=O)[C@]2(O[C@H](CCn3cc(CCO)nn3)[C@@H]([Si](C)(C)c3ccc(OC)cc3)[C@@H]2C)c2cc(N3CCOC3=O)ccc21`
0.231

composite z-score of CC1CC/C=C\[C@H]2OC34C=CCN(Cn5nnc6ccccc65)C(=O)[C@H]3N(CCO)C(=O)[C@@H]4C2C(=O)O1 (some centres undefined) on Neurogenic locus notch homolog protein 3 (Homo sapiens)?
-0.695

Kindly state the measured composite z-score obtained for Cn1cccc1C(O)C1C=CC2C(=O)NC(=O)C2N1Nc1ccccn1 (centres undefined) with Neurogenic locus notch homolog protein 3 (Homo sapiens).
-0.929

Tell me reported composite z-score for COC(=O)C1(C)C=C2C(=C(c3ccccc3)C(=O)C2C)CN1 (centres undefined) , tested with Neurogenic locus notch homolog protein 3 (Homo sapiens).
-0.904

Hi! What's the reported composite z-score for `O=C1C[C@@H](O)[C@@H](O)[C@@H]2[C@@H]3C(=O)N(Cc4ccc5c(c4)OCO5)C(=O)[C@@H]3CC[C@@H]12` on Neurogenic locus notch homolog protein 3 (Homo sapiens)?
1.12

Observed composite z-score on Neurogenic locus notch homolog protein 3 (Homo sapiens) for `C[C@@H](c1ccccc1)N1C(=O)[C@H]2[C@H]3[C@H](O)C=CC(=O)[C@@H]3CC[C@H]2C1=O` , please.
0.698

Hello, I am looking for reported composite z-score with Neurogenic locus notch homolog protein 3 (Homo sapiens) for `CC(C)C[C@@H]1NC(=O)[C@H]2C[C@@H](C(=O)NCCCCCCN(C)C)[C@@H](c3cccc(OCCO)c3)N2C1=O` . Could you help?
1.04

Notebook entry, Neurogenic locus notch homolog protein 3 (Homo sapiens) assay: composite z-score of `O=C1C[C@@H](O)[C@@H](O)[C@@H]2[C@@H]3C(=O)N(c4ccc(F)cc4F)C(=O)[C@@H]3CC[C@@H]12` = ?
0.65

What is its composite z-score for Neurogenic locus notch homolog protein 3 (Homo sapiens)? Entry: `Cc1ccc(S(=O)(=O)N[C@@H]2COC(=O)[C@H](C)COC(=O)CC=C[C@H]2C)cc1`
0.566

# query: composite z-score | item `COC(=O)[C@@]1(Cc2ccccc2)[C@H]2c3cc(C(=O)N4CCCC4)n(Cc4ccccn4)c3C[C@H]2CN1C(=O)c1ccccc1` | system: Neurogenic locus notch homolog protein 3 (Homo sapiens)
1.14

Find composite z-score (Neurogenic locus notch homolog protein 3 (Homo sapiens)) for the entry `CC(C)(C)OC(=O)CC[C@]1(C(=O)NCc2ccccc2)N=C(c2ccc(OCCCO)cc2)O[C@H]1c1ccccc1`
0.97

Record `O=C1[C@H]2[C@H]3[C@H](O)[C@H](O)CC(=NO[C@@H]4O[C@H](CO)[C@@H](O)[C@H](O)[C@H]4O)[C@@H]3CC[C@H]2C(=O)N1c1ccc(F)cc1F` : what is its composite z-score with Neurogenic locus notch homolog protein 3 (Homo sapiens)?
0.79

Look up composite z-score with Neurogenic locus notch homolog protein 3 (Homo sapiens) for this compound: Cc1cc2c(nc1C)CCCN2CC(O)CN1CCN(C)CC1 (centres undefined)
0.915

Lab request: please report composite z-score under test system Neurogenic locus notch homolog protein 3 (Homo sapiens) for COC(=O)[C@H](C)NC(=O)CCC1CC(OC(=O)NCc2cccc3ccccc23)CC2(CCCC(COC(=O)NCCc3ccc(Cl)cc3)O2)O1 (some centres undefined)
1.13

// fetch Neurogenic locus notch homolog protein 3 (Homo sapiens) composite z-score for `CC[C@@H](c1ccccc1)n1c(=O)n2n(c1=O)[C@H]1[C@H](O)[C@@H]3O[C@@H]3C(=NOCC(C)C)[C@H]1CC2`
0.586

Entry `COCCOC(=O)N1C(=O)[C@@]2(c3cc(C#Cc4ccc(OC)cc4)ccc31)[C@H](c1ccc(O)cc1)N1[C@H](c3ccccc3)[C@H](c3ccccc3)OC(=O)[C@H]1[C@@H]2C(N)=O` , system Neurogenic locus notch homolog protein 3 (Homo sapiens): what composite z-score was measured?
1.1

Provide value of composite z-score for this record tested with Neurogenic locus notch homolog protein 3 (Homo sapiens): `CO[C@H]1COC(=O)[C@@H]2CCCN2C(=O)[C@@H](C)COC(=O)CC=C[C@@H]1C`
0.665

Form field - read-out: composite z-score; system: Neurogenic locus notch homolog protein 3 (Homo sapiens); submitted item: `CC(C)NC(=O)[C@@]1(C)c2ccccc2C(=O)N(Cc2cc(F)cc(C(F)(F)F)c2)[C@H]1c1ccc(CO)cc1`
0.364

Reported composite z-score for Neurogenic locus notch homolog protein 3 (Homo sapiens), given `CN1C(=O)[C@@]2(CCC(=O)OC(C)(C)C)N=C(c3ccc(OCCCO)cc3)O[C@H]2c2ccccc21` ?
0.736

API: value(readout= composite z-score, system= Neurogenic locus notch homolog protein 3 (Homo sapiens), query= `[N-]=[N+]=NCc1ccccc1C[C@]1(C(=O)NCc2ccccc2)N=C(c2ccc(OCCCO)cc2)O[C@H]1c1ccccc1N=[N+]=[N-]` )
0.755

# get_value(readout= composite z-score, system= Neurogenic locus notch homolog protein 3 (Homo sapiens)) for `CCc1cc2c(nc1CC)CCN(CCC(C)=NOC[C@@H](O)[C@H]1O[C@@H]3OC(C)(C)O[C@@H]3[C@H]1O)C2`
0.0003

Quick check: composite z-score on Neurogenic locus notch homolog protein 3 (Homo sapiens), item `CC(=O)OC[C@H]1O[C@@H](ON=C(C)CCN2CCc3nc(-c4ccccc4)c(-c4ccccc4)cc3C2)[C@H](OC(C)=O)[C@@H](OC(C)=O)[C@@H]1OC(C)=O` ?
1.09

API: value(readout= composite z-score, system= Neurogenic locus notch homolog protein 3 (Homo sapiens), query= `O=C1[C@H]2[C@H]3[C@H](O)[C@H](O)CC(=NOC[C@@H](O)COCc4ccco4)[C@H]3CC[C@H]2C(=O)N1c1cccc(Oc2ccccc2)c1` )
-0.413

Report composite z-score for `O=C1C[C@]2(c3ccc([N+](=O)[O-])cc3)C(=O)N(CCN3CCOCC3)c3cc(CO)ccc3[C@H]2N1CC12CC3CC(CC(C3)C1)C2` tested on Neurogenic locus notch homolog protein 3 (Homo sapiens).
0.111

Tell me reported composite z-score for `O=C1C2=CC[C@H]3C(=O)N(Cc4ccc5c(c4)OCO5)C(=O)[C@H]3[C@H]2[C@H](O)[C@@H]2O[C@H]12` , tested with Neurogenic locus notch homolog protein 3 (Homo sapiens).
0.632

Hello, I am looking for reported composite z-score with Neurogenic locus notch homolog protein 3 (Homo sapiens) for COc1ccc(-c2ccc3c(n2)CCCN3CC(O)CN2CCCc3nc(C)c(C)cc32)cc1 (centres undefined) . Could you help?
1.1

// lookup composite z-score | system=Neurogenic locus notch homolog protein 3 (Homo sapiens) | key= `O=C1[C@H]2[C@H]3[C@H](O)[C@H](O)CC(=NO[C@@H]4O[C@H](CO)[C@@H](O)[C@H](O)[C@H]4O)[C@H]3CC[C@H]2C(=O)N1Cc1ccccc1`
0.669

Quick check: composite z-score on Neurogenic locus notch homolog protein 3 (Homo sapiens), item `C=CC[C@@H]1C=C[C@H](ON=C[C@@H](OC)[C@H](C)C=CCC(=O)OC)[C@@H](CO)O1` ?
-0.39

Kindly state the measured composite z-score obtained for CC1CC/C=C\[C@H]2OC34C=CCN(C(C)C)C(=O)[C@H]3N(CCCO)C(=O)[C@@H]4C2C(=O)O1 (some centres undefined) with Neurogenic locus notch homolog protein 3 (Homo sapiens).
-0.344

Source listed as PubChem BioAssay.
